- TESTED_ON: HIV-1 RT-associated RNase H (Human immunodeficiency virus type 1 group M subtype B, UniProt P03366)
- Construct: His-tagged p66/p51 HIV-1 RT group M subtype B; His tag
- METHOD: RNase H polymerase-independent cleavage assay
- PROTOCOL_CONDITIONS: IC50, compound concentration required to reduce HIV-1 RT-associated RNase H activity by 50%, recombinant HIV-1 wt RT, hybrid RNA/DNA substrate, 37 °C, 1 hour
REPORTED_METRIC: pIC50
Give bare numbers, as −log10 of the molar value.

The following compounds have reported results that may help.
COMPOUND	VALUE_OBSERVED
COC(=O)C1=C(C)N=C2SC(=NNc3ccccc3C(=O)OC)C(=O)N2C1c1ccc(OC)cc1 (stereo not drawn) [Compound 12b]	5.53
COC(=O)C1=C(C)N=C2SC(=NNc3ccccc3)C(=O)N2C1c1ccc(OC)c(OC)c1OC (stereo not drawn) [Compound 11b]	4.31
COC(=O)C1=C(C)N=C2SC(=NNc3ccccc3)C(=O)N2C1c1ccccc1 (stereo not drawn) [Compound 10j]	4.67
COC(=O)C1=C(C)N=C2SC(=NNc3cccc(C(C)=O)c3)C(=O)N2C1c1ccc(OC)c(OC)c1OC (stereo not drawn) [Compound 11k]	4.66
COC(=O)C1=C(C)N=C2SC(=NNc3cc(OC)c(OC)c(OC)c3)C(=O)N2C1c1ccc(OC)cc1 (stereo not drawn) [Compound 12e]	5.05

Return reported pIC50 values for all items listed beneath this line.
1. COC(=O)C1=C(C)N=C2SC(=NNc3ccc(OC)c(OC)c3)C(=O)N2C1c1ccccc1 (stereo not drawn) [Compound 10h]
2. COC(=O)C1=C(C)N=C2SC(=NNc3cccc(C(=O)OC)c3)C(=O)N2C1c1ccc(OC)c(OC)c1OC (stereo not drawn) [Compound 11j]
3. COC(=O)C1=C(C)N=C2SC(=NNc3cccc([N+](=O)[O-])c3)C(=O)N2C1c1ccc(OC)c(OC)c1OC (stereo not drawn) [Compound 11d]
4. COC(=O)C1=C(C)N=C2SC(=NNc3ccccc3OC)C(=O)N2C1c1ccc(OC)c(OC)c1OC (stereo not drawn) [Compound 11a]
5. COC(=O)C1=C(C)N=C2SC(=NNc3ccccc3C(C)=O)C(=O)N2C1c1ccc(OC)cc1 (stereo not drawn) [Compound 12a]

Response:
1. 4.84
2. 4.38
3. 5.00
4. 4.93
5. 5.40

Return reported pIC50 values for all items listed beneath this line.
1. COC(=O)C1=C(C)N=C2SC(=NNc3ccc(OC)cc3S(=O)(=O)O)C(=O)N2C1c1ccccc1 (stereo not drawn) [Compound 10e]
2. COC(=O)C1=C(C)N=C2SC(=NNc3cc(OC)c(OC)c(OC)c3)C(=O)N2C1c1ccccc1 (stereo not drawn) [Compound 10c]

Response:
1: 4.23; 2: 4.61
